// provenance: the supplement of paper PMC6555819

test system: RXRa homodimer (NR concentration 180 nM); assay: PBM binding z-score (relative to random genomic background probes); higher = stronger binding; sequences stand for … in GC…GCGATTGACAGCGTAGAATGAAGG
Threshold check on PBM binding z-score: at or above 1 gives Satisfied, strictly below gives Not satisfied.

residues=CGAACTAGGTCAGAACAGGACAGTGATGGATGAT category_label=Satisfied
residues=CGACCAAGGTGAACAAGGTCGTTGATTACTATTC category_label=Satisfied
residues=CCTGCTAGGGCAATGGTCAGCTAAAGCAGCTCGC category_label="Not satisfied"
residues=CCGACTGGGGCAAAGGATACCATACTCAGTACGA category_label="Not satisfied"
residues=GCTTGTAGATCGAGGTTAAGAAAGACTAAGCTAA category_label=Satisfied
residues=TAGCCTAGGACATTGGGCCAGTATAGTACGCATC category_label="Not satisfied"
residues=CGATCGAGGGCATGAGTTGATAGCAAATGCCGAT category_label="Not satisfied"
residues=GTACCAAGGTGAATAGGTCCTTGATGAGTAGGCG category_label="Not satisfied"
residues=CGAACTAGGTCATTGAAAGGACAGTGAATAGTAA category_label=Satisfied
residues=ACAGACAGGAGATGAAGGTAACTCAGGCTATCAT category_label="Not satisfied"
residues=CTCGAAAGGTCGGTTGAGGTGAGTGTACGGATAA category_label=Satisfied

---

Reported PBM binding z-score values follow for various sequences
tested on: PPARg DBDmut:RXRa IVT, anti-PPARg (DBD mutation: PPARg1 K132A/R137A, NR concentration 270 nM, RXRa partner concentration 90 nM); assay: PBM binding z-score (relative to random genomic background probes); higher = stronger binding; sequences stand for … in GC…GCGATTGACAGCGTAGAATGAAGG
quantity kind: PBM binding z-score

residues=CCTAGCAGGCCAATCTGGGTCACTAAAGGCTTGA observed_result=-0.0852
residues=ATCGAAAGGTCGCGGTGAGTATAGAGAAAGGGAA observed_result=0.634
residues=CGAACGAGGGCATGAGTTGTTAGCAAATGCCGAT observed_result=-0.603
residues=CGTCCAAGGTCAGAGGGGTCAGTGAATGCCGAGT observed_result=-0.262
residues=CCGACTGGGGCATAAGCTTACCATAAGCCAGCCC observed_result=-1.09
residues=GCTCGGAGGACAAGGTCTGAGCTTTGTCCGTAGA observed_result=-0.968
residues=TGAATGAGGTTATAAGATGAGGGAACGTTGCAAA observed_result=0.967
residues=CCTGCTGGGCCAAGGTCATTGATCAGTCAAAGCA observed_result=-1.48
residues=TCATATATGTAAAAGGTGAAAGTCGGTGTGGTAA observed_result=0.873
residues=CCGAGTAGGTTATGGGTCATTCAGGCAACGGTGA observed_result=-0.0117
residues=CGTCCAAGGTCAAAGATCAGTGAAGAGATGACGG observed_result=0.698
residues=TCTAGTTAGTCAAAGGTCACACACTCGAAATGCG observed_result=1.17
residues=TCGAGTAGGTTACGAATGGGGCATTCAGCTTTCT observed_result=-0.724
residues=TCTTGTATATCAACAGGAGGTTAAGAAAGATCGA observed_result=1.56
residues=TCATATAGGTAAAAGATGAAAGTCGGTGTGGTAA observed_result=1.07
residues=ACTACTAGTTGACTTAGGGCAACCGATACGACGC observed_result=0.77
residues=CCTACTGGGCCACGAAACGTCATTGATTCAGTGA observed_result=0.954
residues=ATCTCAAGGTAAGACTCAGTTCAGTGAAGAACGC observed_result=0.753
residues=ACAGACAGGTGAGTGAAGGTAACTCTGCTGGACG observed_result=0.385
residues=CAGCCTAGGTCAGGGCGAGTATAGGAGGAACGTT observed_result=-1.19
residues=ACTAGCCGGCCAAGGGTCACTCAAGATTAGTCCG observed_result=-0.122
residues=CGTCGAAGTTCAAGGTAACGTAACAGAAAGCAGC observed_result=0.134
residues=ATCTCTATGTAACCAAGTTCAGTGAATGCCGAAC observed_result=0.85
residues=CCTTACGGGTCACGCGGTTATAGCACGACGAGCG observed_result=0.683
residues=TTACCAAGGTGGGCTGAGGTCGTTGATCCAACTC observed_result=-0.362
residues=CCTACTGGGCCAAGGTCATTGATCAGTCAAAGCA observed_result=-0.374
